Reported mortality % is given for each of the following molecules.
Tested on: house fly (Musca domestica)
Conditions: in vivo, topical_or_ocular, 1440 min
Form entry: value (%) — number only.

INPUT: Bench note: what mortality % did CC#CCOCC1COc2ccccc2O1 (centres unmarked) show?
OUTPUT: 75

INPUT: What do you get for C#CC(C)OCc1cccc2ccccc12 (centres unmarked) ?
OUTPUT: 27

INPUT: What do you get for C#CCOC(C)c1ccc2ccccc2c1 (centres unmarked) [Compound 256, 2-[1-(2-propynyloxy)-ethyl]-naphthalene] ?
OUTPUT: 32

INPUT: What do you get for C#CCNC(=O)c1cccc2ccccc12 [Compound 541, N-(2-Propynyl)-1-naphthamide] ?
OUTPUT: 46

INPUT: What do you get for `CC#CCO[C@H](C)c1cccc2ccccc12` ?
OUTPUT: 72

Source of measurements: patent US6277867A
